Tested on: Streptococcus pneumoniae
Assay: Antimicrobial activity against drug-resistant Streptococcus pneumoniae isolate 24 after 14 passages with Telithromycin measured after 10 antibiotic-free subculture by multi-step resistance selection technique
Type: functional
Entries and their measured MIC follow.
PROPERTY NAME: MIC (µg/mL)

INSERT INTO assay_data (compound_string, unit_info, comparison_operator, recorded_result) VALUES
  ('CN(C)c1cc(NC(=O)CNC(C)(C)C)c(O)c2c1C[C@H]1C[C@H]3[C@H](N(C)C)C(O)=C(C(N)=O)C(=O)[C@@]3(O)C(O)=C1C2=O', 'µg/mL', '=', 0.03),
  ('CCC[C@@H]1C[C@@H](C(=O)N[C@@H]([C@H]2O[C@H](SC)[C@H](O)[C@@H](O)[C@H]2O)[C@H](C)Cl)N(C)C1', 'µg/mL', '>', 64),
  ('CO/N=C(\C(=O)N[C@@H]1C(=O)N2C(C(=O)O)=C(CSc3nc(=O)c(O)nn3C)CS[C@H]12)c1csc(N)n1', 'µg/mL', '=', 2);

---

Tested on: Streptococcus pneumoniae
Assay: Antimicrobial activity against drug-resistant Streptococcus pneumoniae isolate 3009 after 25 passages with clarithromycin measured after 10 antibiotic-free subculture by multi-step resistance selection technique
Format: functional
PROPERTY NAME: MIC (µg/mL)

INSERT INTO measurements (compound, unit_info, comparison_operator, recorded_result) VALUES
  ('CO/N=C1\CN(c2nc3c(cc2F)c(=O)c(C(=O)O)cn3C2CC2)CC1CN (configuration not stated)', 'µg/mL', '=', 0.03),
  ('CC[C@H]1OC(=O)[C@H](C)[C@@H](O[C@H]2C[C@@](C)(OC)[C@@H](O)[C@H](C)O2)[C@H](C)[C@@H](O[C@@H]2O[C@H](C)C[C@H](N(C)C)[C@H]2O)[C@](C)(O)C[C@@H](C)CN(C)[C@H](C)[C@@H](O)[C@]1(C)O', 'µg/mL', '>', 64),
  ('CC[C@H]1OC(=O)[C@H](C)[C@@H](O[C@H]2C[C@@](C)(OC)[C@@H](O)[C@H](C)O2)[C@H](C)[C@@H](O[C@@H]2O[C@H](C)C[C@H](N(C)C)[C@H]2O)[C@](C)(OC)C[C@@H](C)C(=O)[C@H](C)[C@@H](O)[C@]1(C)O', 'µg/mL', '=', 64),
  ('CN(C)c1cc(NC(=O)CNC(C)(C)C)c(O)c2c1C[C@H]1C[C@H]3[C@H](N(C)C)C(O)=C(C(N)=O)C(=O)[C@@]3(O)C(O)=C1C2=O', 'µg/mL', '=', 0.03),
  ('CC[C@H]1OC(=O)[C@H](C)C(=O)[C@H](C)[C@@H](O[C@@H]2O[C@H](C)C[C@H](N(C)C)[C@H]2O)[C@](C)(OC)C[C@@H](C)C(=O)[C@H](C)[C@H]2N(CCCCn3cnc(-c4cccnc4)c3)C(=O)O[C@]12C', 'µg/mL', '=', 0.06),
  ('CO/N=C(\C(=O)N[C@@H]1C(=O)N2C(C(=O)O)=C(CSc3nc(=O)c(O)nn3C)CS[C@H]12)c1csc(N)n1', 'µg/mL', '=', 0.016),
  ('CCC[C@@H]1C[C@@H](C(=O)N[C@@H]([C@H]2O[C@H](SC)[C@H](O)[C@@H](O)[C@H]2O)[C@H](C)Cl)N(C)C1', 'µg/mL', '=', 1);

The origin of these recorded values is ChEMBL document CHEMBL1151428.
